Please respond with reported bioavailability for every item in the list.
experiment: Oral bioavailability in fasted Sprague-Dawley rat at 3 mg/kg by HTLC-MS/MS analysis; assay type: ADME, organism-based; conditions: in vivo
The answer is to be given in %; state only the numeric part.

Quick note, bioavailability for O=C(O)CCNC(=O)c1ccc(N(Cc2ccc3c(c2)Cc2ccccc2-3)c2nc(-c3ccc(OC(F)(F)F)cc3)cs2)cc1 landed at 13

Quick note, bioavailability for O=C(O)CCNC(=O)c1ccc(N(Cc2ccc3c(c2)Cc2ccccc2-3)c2nc(-c3ccc(C(F)(F)F)cc3)cs2)cc1 landed at 13

----------
assay: Half life in fasted Sprague-Dawley rat plasma at 1.62 mg/kg, iv by HTLC-MS/MS analysis; type: ADME, organism-based; design: dose 1.62 mg/kg, route intravenous
recorded.endpoint: half-life
Record the result as a number with its unit.

Quick note, half-life for O=C(O)CCNC(=O)c1ccc(CN(c2ccc3c(c2)CCCC3)c2nc(-c3ccc(C(F)(F)F)cc3)cs2)cc1 landed at 1.23 h

Quick note, half-life for O=C(O)CCNC(=O)c1ccc(CN(c2ccc(C(F)(F)F)cc2)c2nc(-c3ccc(Cl)cc3)cs2)cc1 landed at 3.8 h

----------
assay: Tmax in fasted Sprague-Dawley rat at 1.49 mg/kg, iv and 3.19 mg/kg, po; type: ADME, organism-based; details: in vivo
recorded.endpoint: Tmax

Quick note, Tmax for O=C(O)CCNC(=O)c1ccc(CN(c2ccc(OC(F)(F)F)cc2)c2nc(-c3ccc(C(F)(F)F)cc3)cs2)cc1 landed at > 6 h

----------
test system: Hepatocyte; experiment: Inhibition of glucagon-stimulated glucose production in human primary hepatocytes preincubated for 10 mins before glucagon addition by NADH-linked hexokinase assay; type: functional, cell-based
Please respond with reported IC50 for every item in the list.
The answer is to be given in µM; state only the numeric part.

Quick note, IC50 for O=C(O)CCNC(=O)c1ccc(CN(c2ccc3c(c2)Cc2ccccc2-3)c2nc(-c3ccc(OC(F)(F)F)cc3)cs2)cc1 landed at 0.7

Quick note, IC50 for O=C(O)CCNC(=O)c1ccc(CN(c2ccc(Cl)cc2)c2nc(-c3ccc(OC(F)(F)F)cc3)cs2)cc1 landed at 2.8

Quick note, IC50 for O=C(O)CCNC(=O)c1ccc(CN(c2ccc3c(c2)CCCC3)c2nc(-c3ccc(Cl)c(Cl)c3)cs2)cc1 landed at 4

Quick note, IC50 for O=C(O)CCNC(=O)c1ccc(CN(c2ccc3c(c2)CCC3)c2nc(-c3ccc(OC(F)(F)F)cc3)cs2)cc1 landed at 8.6

Quick note, IC50 for O=C(O)CCNC(=O)c1ccc(CN(c2ccc(Cl)cc2)c2nc(-c3ccc(C(F)(F)F)cc3)cs2)cc1 landed at 2.7

Quick note, IC50 for O=C(O)CCNC(=O)c1ccc(CN(c2ccc(OC(F)(F)F)cc2)c2nc(-c3ccc(C(F)(F)F)cc3)cs2)cc1 landed at 3.6

Quick note, IC50 for O=C(O)CCNC(=O)c1ccc(CN(c2ccc(C(F)(F)F)cc2)c2nc(-c3ccc(Cl)cc3)cs2)cc1 landed at 6.7

----------
assay: Oral bioavailability in fasted Sprague-Dawley rat at 3.16 mg/kg by HTLC-MS/MS analysis; type: ADME, organism-based; conditions: in vivo
recorded.endpoint: bioavailability

Quick note, bioavailability for O=C(O)CCNC(=O)c1ccc(CC(c2ccc(Cl)cc2)c2nc(-c3ccc(C(F)(F)F)cc3)cs2)cc1 (stereo unspecified) landed at 52%

----------
test: Oral bioavailability in fasted Sprague-Dawley rat at 3.04 mg/kg by HTLC-MS/MS analysis; assay type: ADME, organism-based; conditions: in vivo
recorded.endpoint: bioavailability (%)
The answer is to be given in %; state only the numeric part.

Quick note, bioavailability for O=C(O)CCNC(=O)c1ccc(CN(c2ccc(C(F)(F)F)cc2)c2nc(-c3ccc(Cl)cc3)cs2)cc1 landed at 58

----------
assay: Cmax in fasted Sprague-Dawley rat at 1.62 mg/kg, iv and 3.04 mg/kg, po; type: ADME, organism-based; conditions: in vivo
recorded.endpoint: Cmax (ng/mL)
The answer is to be given in ng/mL; state only the numeric part.

Quick note, Cmax for O=C(O)CCNC(=O)c1ccc(CN(c2ccc(C(F)(F)F)cc2)c2nc(-c3ccc(Cl)cc3)cs2)cc1 landed at 2100

----------
target: UniProtKB Q61606; test: Binding affinity to glucagon receptor in mouse liver membrane by membrane filter assay
Sequence (Q61606 whole entry): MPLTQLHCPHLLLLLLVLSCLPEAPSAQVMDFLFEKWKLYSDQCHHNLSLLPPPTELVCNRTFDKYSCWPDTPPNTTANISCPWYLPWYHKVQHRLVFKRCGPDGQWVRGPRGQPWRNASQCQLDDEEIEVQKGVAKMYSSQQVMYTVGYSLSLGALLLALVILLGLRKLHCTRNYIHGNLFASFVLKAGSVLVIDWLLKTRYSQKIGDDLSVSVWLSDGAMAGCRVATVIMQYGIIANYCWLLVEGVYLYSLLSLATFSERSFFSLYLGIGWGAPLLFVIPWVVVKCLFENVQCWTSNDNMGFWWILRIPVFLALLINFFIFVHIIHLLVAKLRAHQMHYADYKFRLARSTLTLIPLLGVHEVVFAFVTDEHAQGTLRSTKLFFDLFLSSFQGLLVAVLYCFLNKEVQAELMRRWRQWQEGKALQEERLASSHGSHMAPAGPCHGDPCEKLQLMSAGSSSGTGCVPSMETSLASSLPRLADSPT
recorded.endpoint: IC50 (nM)
The answer is to be given in nM; state only the numeric part.

Form field IC50 for item O=C(O)CCNC(=O)c1ccc(CN(c2ccc(OC(F)(F)F)cc2)c2nc(-c3ccc(C(F)(F)F)cc3)cs2)cc1 on UniProtKB Q61606: 552

Form field IC50 for item O=C(O)CCNC(=O)c1ccc(CN(c2ccc(Cl)cc2)c2nc(-c3ccc(C(F)(F)F)cc3)cs2)cc1 on UniProtKB Q61606: 372

Form field IC50 for item O=C(O)CCNC(=O)c1ccc(CN(c2ccc3c(c2)CCC3)c2nc(-c3ccc(OC(F)(F)F)cc3)cs2)cc1 on UniProtKB Q61606: 680

Form field IC50 for item O=C(O)CCNC(=O)c1ccc(CN(c2ccc3c(c2)CCC3)c2nc(-c3ccc(C(F)(F)F)cc3)cs2)cc1 on UniProtKB Q61606: 830

Form field IC50 for item O=C(O)CCNC(=O)c1ccc(CN(c2ccc(Cl)cc2)c2nc(-c3ccc(OC(F)(F)F)cc3)cs2)cc1 on UniProtKB Q61606: 418

Form field IC50 for item O=C(O)CCNC(=O)c1ccc(CN(c2ccc3c(c2)Cc2ccccc2-3)c2nc(-c3ccc(OC(F)(F)F)cc3)cs2)cc1 on UniProtKB Q61606: 218

Form field IC50 for item O=C(O)CCNC(=O)c1ccc(CN(c2ccc(C(F)(F)F)cc2)c2nc(-c3ccc(Cl)cc3)cs2)cc1 on UniProtKB Q61606: 648

Form field IC50 for item O=C(O)CCNC(=O)c1ccc(CN(c2ccc3c(c2)CCCC3)c2nc(-c3ccc(Cl)c(Cl)c3)cs2)cc1 on UniProtKB Q61606: 452

----------
Please respond with reported Tmax for every item in the list.
test: Tmax in fasted Sprague-Dawley rat at 1.6 mg/kg, iv and 3.15 mg/kg, po by HTLC-MS/MS analysis; type: ADME, organism-based; conditions: in vivo
The answer is to be given in h; state only the numeric part.

Quick note, Tmax for O=C(O)CCNC(=O)c1ccc(CN(c2ccc3c(c2)CCCC3)c2nc(-c3ccc(Cl)c(Cl)c3)cs2)cc1 landed at 1

Quick note, Tmax for CC(C)(C)c1ccc(-c2csc(N(Cc3ccc(C(=O)NCCC(=O)O)cc3)c3ccc(C4=CCCCC4)cc3)n2)cc1 landed at 1.5

----------
assay: Oral bioavailability in fasted Sprague-Dawley rat at 3.15 mg/kg by HTLC-MS/MS analysis; format: ADME, organism-based; conditions: in vivo
Please respond with reported bioavailability for every item in the list.
The answer is to be given in %; state only the numeric part.

Quick note, bioavailability for CC(C)(C)c1ccc(-c2csc(N(Cc3ccc(C(=O)NCCC(=O)O)cc3)c3ccc(C4=CCCCC4)cc3)n2)cc1 landed at 2

Quick note, bioavailability for O=C(O)CCNC(=O)c1ccc(CN(c2ccc3c(c2)CCCC3)c2nc(-c3ccc(Cl)c(Cl)c3)cs2)cc1 landed at 36

----------
experiment: Oral bioavailability in fasted Sprague-Dawley rat at 3.34 mg/kg by HTLC-MS/MS analysis; type: ADME, organism-based; details: in vivo
recorded.endpoint: bioavailability (%)
The answer is to be given in %; state only the numeric part.

Quick note, bioavailability for O=C(O)CCNC(=O)c1ccc(CN(c2ccc3c(c2)CCC3)c2nc(-c3ccc(C(F)(F)F)cc3)cs2)cc1 landed at 89

Quick note, bioavailability for O=C(O)CCNC(=O)c1ccc(CN(c2ccc3c(c2)CCC3)c2nc(-c3ccc(OC(F)(F)F)cc3)cs2)cc1 landed at 87

----------
Please respond with reported Tmax for every item in the list.
assay: Tmax in fasted Sprague-Dawley rat at 1.9 mg/kg, iv and 3.7 mg/kg, po by HTLC-MS/MS analysis; format: ADME, organism-based; conditions: in vivo
The answer is to be given in h; state only the numeric part.

Quick note, Tmax for O=C(O)CCNC(=O)c1ccc(CN(c2ccc(C3=CCCCC3)cc2)c2nc(-c3ccc(OC(F)(F)F)cc3)cs2)cc1 landed at 1.5

Quick note, Tmax for O=C(O)CCNC(=O)c1ccc(CN(c2ccc(C3=CCCCC3)cc2)c2nc(-c3ccccc3)cs2)cc1 landed at 1.5

----------
assay: Tmax in fasted Sprague-Dawley rat at 1.58 mg/kg, iv and 3.16 mg/kg, po; format: ADME, organism-based; details: in vivo
recorded.endpoint: Tmax
Record the result as a number with its unit.

Quick note, Tmax for O=C(O)CCNC(=O)c1ccc(CC(c2ccc(Cl)cc2)c2nc(-c3ccc(C(F)(F)F)cc3)cs2)cc1 (stereo unspecified) landed at 30 min
